Assay: LNP size and polydispersity index (PDI) by dynamic light scattering
Type: physicochemical
Settings: LNP with cirRNA (SEQ ID NO: 1); in nm (unit assumed)
Entries and their Size
# print the numeric value only

// below: answered compounds
- COMPOUND: "CCCCCCCCCCCOC(=O)CCCCCN(CCCCCCCCOC(=O)C(CCCCCC)CCCCCCCC)CCOC(=O)NCCN1CCOCC1 (stereo not shown) [Lipid 223]"
  Size: 60.01
- COMPOUND: "CCCCCCCCC(CCCCCC)C(=O)OCCCCCCCCN(CCCCCCCCCCC(=O)OCCCCCC)CCOC(=O)NCCN1CCN(C)CC1 (stereo not shown) [Lipid 46]"
  Size: 137.6
- COMPOUND: "CCCCCCCCCC(=O)OCCCCCCCN(CCCCCCCCOC(=O)C(CCCCCC)CCCCCCCC)CCOC(=O)NCCCN1CCCCC1 (stereo not shown) [Lipid 358]"
  Size: 81.33
- COMPOUND: "CCCCC/C=C\\CCOC(=O)CCCCCN(CCCCCCCCOC(=O)C(CCCCCC)CCCCCCCC)CCOC(=O)NCc1ncc[nH]1 (stereo not shown) [Lipid 185]"
  Size: 69.89
- COMPOUND: "CCCCC/C=C\\CCOC(=O)CCCCCN(CCCCCC(=O)OCC(CCCCCCCC)CCCCCCCCCC)CCOC(=O)NCCN1CCCCC1 (stereo not shown) [Lipid 245]"
  Size: 99.5

Exam item: Give the measured Size for CCCCC/C=C\C/C=C\CCCCCCCCN(CCCCCCCC(=O)OC(CCCCCCCC)CCCCCCCC)CCCOC(=O)NCCN1CCCC1 [Lipid 277]
Marked response: 76.75

Exam item: Give the measured Size for CCCCCCOC(=O)CCCCCCCCCCN(CCCCCCCCCCC(=O)OCCCCCC)CCOC(=O)NCCN1CCN(C)CC1 [Lipid 138]
Marked response: 130.8
